- test system: BRD4 (Homo sapiens, UniProt O60885)
- Construct: Mean 488 intensity of BRD4 quantitated in nuclear region; endogenous in cells; host or cells: EoL-1 eosinophilic leukemia cells
- protocol: BRD4 degradation assay in EOL1 cells (immunofluorescence imaging)
- Assay type: cell-based
- condition set: EoL-1 eosinophilic leukemia cells, 4 hours treatment, nuclear BRD4 immunofluorescence
Starred links: 1 amine or outer side, 2 acyl side, 3 side chain; linkers in the order of their positions; H or OH if unused. Positions of bridges follow the written chain, without caps; N, C: chain ends. Non-standard residues stand in square brackets, D forms with d. Residues, ends and D or L forms follow the SMILES beside them. *: point of attachment. JQ1acid = Cc1sc2c(c1C)C(c1ccc(Cl)cc1)=N[C@@H](CC(=O)*)c1nnc(C)n1-2; Phg(4-(4-Me-thiazol-5-yl)) = Cc1ncsc1-c1ccc([C@H](N)C(=O)O)cc1; X2 = COc1ccc2c(c1)C(c1ccc(Cl)cc1)=N[C@@H](CC(=O)*)c1nnc(C)n1-2; X1 = CC(C)(C)[C@@H](C(=O)[*:2])n1cc(COCCN[*:1])nn1; dBip = N[C@H](Cc1ccc(-c2ccccc2)cc1)C(=O)O; Hyp = O=C(O)[C@@H]1C[C@@H](O)CN1; Tle = CC(C)(C)[C@H](N)C(=O)O; dDap = NC[C@@H](N)C(=O)O
test readout: DC50

- molecule: "Cc1sc2c(c1C)C(c1ccc(Cl)cc1)=N[C@@H](CC(=O)NC[C@H]1NC(=O)[C@@H](C(C)C)NC(=O)[C@@H](Cc3ccc(-c4ccccc4)cc3)NC(=O)[C@@H]3C[C@@H](O)CN3C(=O)[C@H](C(C)(C)C)n3cc(nn3)COCCNC1=O)c1nnc(C)n1-2 [Compound 202] (cyclo([Hyp][dBip][dV][dDap](JQ1acid)[X1]))"
  test system: "BRD4 (Homo sapiens, UniProt O60885)"
  DC50: "< 0.05 µM"
- molecule: "Cc1sc2c(c1C)C(c1ccc(Cl)cc1)=N[C@@H](CC(=O)NC[C@H]1CCCNC(=O)[C@@H](Cc3ccc(-c4ccccc4)cc3)NC(=O)[C@@H]3C[C@@H](O)CN3C(=O)[C@H](C(C)(C)C)n3cc(nn3)C3(CC3)CNC(=O)CNC1=O)c1nnc(C)n1-2"
  test system: "BRD4 (Homo sapiens, UniProt O60885)"
  DC50: "< 1 µM"

Name the recorded DC50 of the molecule listed here: COc1ccc2c(c1)C(c1ccc(Cl)cc1)=N[C@@H](CC(=O)NC[C@H]1NC(=O)CNC(=O)[C@H](c3ccc(-c4scnc4C)cc3)NC(=O)[C@@H]3C[C@@H](O)CN3C(=O)[C@H](C(C)(C)C)NC(=O)CSC[C@H](C(N)=O)NC1=O)c1nnc(C)n1-2 [Compound 51] ({CH2CO}-[Tle][Hyp][Phg(4-(4-Me-thiazol-5-yl))]G[dDap](X2)[dC]-NH2; thioether N-6) > 20 µM

----------
The reader will find reported DC50 values listed item by item below.
- test system: BRD4 (Homo sapiens)
- Construct: Mean 488 intensity of BRD4 quantitated in nuclear region; endogenous in cells; host or cells: EoL-1 eosinophilic leukemia cells
- protocol: BRD4 degradation assay in EOL1 cells (immunofluorescence imaging)
- Type: cell-based
- condition set: EoL-1 eosinophilic leukemia cells, 4 hours treatment, nuclear BRD4 immunofluorescence
Non-standard residues stand in square brackets, D forms with d. Residues, ends and D or L forms follow the SMILES beside them. *: point of attachment. JQ1acid = Cc1sc2c(c1C)C(c1ccc(Cl)cc1)=N[C@@H](CC(=O)*)c1nnc(C)n1-2; X2 = COc1ccc2c(c1)C(c1ccc(Cl)cc1)=N[C@@H](CC(=O)*)c1nnc(C)n1-2; dBip = N[C@H](Cc1ccc(-c2ccccc2)cc1)C(=O)O; Hyp = O=C(O)[C@@H]1C[C@@H](O)CN1; Tle = CC(C)(C)[C@H](N)C(=O)O; dDap = NC[C@@H](N)C(=O)O; AEA = NCCOCC(=O)O

- compound: "Cc1sc2c(c1C)C(c1ccc(Cl)cc1)=N[C@@H](CC(=O)NC[C@H]1NC(=O)[C@@H](Cc3ccc(-c4ccccc4)cc3)NC(=O)[C@@H](Cc3ccc(-c4ccccc4)cc3)NC(=O)[C@@H]3C[C@@H](O)CN3C(=O)[C@H](C(C)(C)C)NC(=O)COCCNC1=O)c1nnc(C)n1-2 [Compound 45] (cyclo([AEA][Tle][Hyp][dBip][dBip][dDap](JQ1acid)))"
  DC50: "< 1000 nM"

Please report the measured DC50 for COc1ccc2c(c1)C(c1ccc(Cl)cc1)=N[C@@H](CC(=O)NC[C@H]1NC(=O)[C@@H](C(C)C)NC(=O)[C@@H](Cc3ccc(-c4ccccc4)cc3)NC(=O)[C@@H]3C[C@@H](O)CN3C(=O)[C@H](C(C)(C)C)NC(=O)COCCNC1=O)c1nnc(C)n1-2 [Compound 52] (cyclo([AEA][Tle][Hyp][dBip][dV][dDap](X2))) < 50 nM

----------
- test system: BRD4 (Homo sapiens)
- Construct: Mean 488 intensity of BRD4 quantitated in nuclear region; endogenous in cells; host or cells: EoL-1 eosinophilic leukemia cells
- protocol: BRD4 degradation assay in EOL1 cells (immunofluorescence imaging)
- Format: cell-based
- condition set: EoL-1 eosinophilic leukemia cells, 4 hours treatment, nuclear BRD4 immunofluorescence
- Description: BRD4 Degradation Assay in EOL1 Cells […] On day-2 samples were washed 3 times with 100 μL/well of PBS. […] Quantitative fluorescence imaging of BRD4 was carried out using an Opera Phenix High-Content Screening System. […] Mean 488 intensity of BRD4 quantitated in nuclear region. […] The individual topological polar surface area (TPSA) and cLogP values were calculated using Chemdraw v. […]
Positions of bridges follow the written chain, without caps; N, C: chain ends. Non-standard residues stand in square brackets, D forms with d. Residues, ends and D or L forms follow the SMILES beside them. *: point of attachment. JQ1acid = Cc1sc2c(c1C)C(c1ccc(Cl)cc1)=N[C@@H](CC(=O)*)c1nnc(C)n1-2; dPhg(4-(4-Me-thiazol-5-yl)) = Cc1ncsc1-c1ccc([C@@H](N)C(=O)O)cc1; cisHyp = O=C(O)[C@@H]1C[C@H](O)CN1; Hyp = O=C(O)[C@@H]1C[C@@H](O)CN1; Tle = CC(C)(C)[C@H](N)C(=O)O; dDap = NC[C@@H](N)C(=O)O
test readout: DC50

- compound: "Cc1sc2c(c1C)C(c1ccc(Cl)cc1)=N[C@@H](CC(=O)NC[C@H]1NC(=O)CNC(=O)[C@@H](C)NC(=O)[C@@H]3C[C@@H](O)CN3C(=O)[C@H](C(C)(C)C)NC(=O)CSC[C@H](C(N)=O)NC1=O)c1nnc(C)n1-2 [Compound 8] ({CH2CO}-[Tle][Hyp][dA]G[dDap](JQ1acid)[dC]-NH2; thioether N-6)"
  endpoint value: "< 20 µM"

Now take the following compound into account.
Hello, please tell me recorded DC50 for this one: Cc1ncsc1-c1ccc([C@H]2NC(=O)[C@@H]3C[C@H](O)CN3C(=O)[C@H](C(C)(C)C)NC(=O)CSC[C@H](C(N)=O)NC(=O)[C@@H](CNC(=O)C[C@@H]3N=C(c4ccc(Cl)cc4)c4c(sc(C)c4C)-n4c(C)nnc43)NC(=O)CNC2=O)cc1 [Compound 27] ({CH2CO}-[Tle][cisHyp][dPhg(4-(4-Me-thiazol-5-yl))]G[dDap](JQ1acid)[dC]-NH2; thioether N-6) > 20 µM

----------
- test system: BRD4 (Homo sapiens, UniProt O60885)
- Construct: Mean 488 intensity of BRD4 quantitated in nuclear region; endogenous in cells; host or cells: EoL-1 eosinophilic leukemia cells
- protocol: BRD4 degradation assay in EOL1 cells (immunofluorescence imaging)
- Type: cell-based
- condition set: EoL-1 eosinophilic leukemia cells, 4 hours treatment, nuclear BRD4 immunofluorescence
Starred links: 1 amine or outer side, 2 acyl side, 3 side chain; linkers in the order of their positions; H or OH if unused. Positions of bridges follow the written chain, without caps; N, C: chain ends. Non-standard residues stand in square brackets, D forms with d. Residues, ends and D or L forms follow the SMILES beside them. *: point of attachment. JQ1acid = Cc1sc2c(c1C)C(c1ccc(Cl)cc1)=N[C@@H](CC(=O)*)c1nnc(C)n1-2; dPhg(4-(4-Me-thiazol-5-yl)) = Cc1ncsc1-c1ccc([C@@H](N)C(=O)O)cc1; dDap(Me) = CN(C[C@@H](N[*:1])C(=O)[*:2])[*:3]; dBip = N[C@H](Cc1ccc(-c2ccccc2)cc1)C(=O)O; Hyp = O=C(O)[C@@H]1C[C@@H](O)CN1; Tle = CC(C)(C)[C@H](N)C(=O)O; dDap = NC[C@@H](N)C(=O)O; AEA = NCCOCC(=O)O
test readout: DC50

Record excerpt, results attached:
- compound: "Cc1sc2c(c1C)C(c1ccc(Cl)cc1)=N[C@@H](CC(=O)NC[C@H]1NC(=O)[C@@H](CCC(N)=O)NC(=O)[C@@H](Cc3ccc(-c4ccccc4)cc3)NC(=O)[C@@H]3C[C@@H](O)CN3C(=O)[C@H](C(C)(C)C)NC(=O)COCCNC1=O)c1nnc(C)n1-2 [Compound 66] (cyclo([AEA][Tle][Hyp][dBip][dQ][dDap](JQ1acid)))"
  DC50: "< 1000 nM"
- compound: "Cc1ncsc1-c1ccc([C@H]2NC(=O)[C@@H]3C[C@@H](O)CN3C(=O)[C@H](C(C)(C)C)NC(=O)CSC[C@H](C(N)=O)NC(=O)[C@@H](CN(C)C(=O)C[C@@H]3N=C(c4ccc(Cl)cc4)c4c(sc(C)c4C)-n4c(C)nnc43)NC(=O)CNC2=O)cc1 [Compound 29] ({CH2CO}-[Tle][Hyp][dPhg(4-(4-Me-thiazol-5-yl))]G[dDap(Me)](JQ1acid)[dC]-NH2; thioether N-6)"
  DC50: "< 20000 nM"

Input Cc1sc2c(c1C)C(c1ccc(Cl)cc1)=N[C@@H](CC(=O)NC[C@H]1NC(=O)[C@@H](C(C)C)NC(=O)[C@@H](Cc3ccc(-c4ccccc4)cc3)NC(=O)[C@@H]3C[C@@H](O)CN3C(=O)[C@H](C(C)(C)C)NC(=O)COCCNC1=O)c1nnc(C)n1-2 [Compound 42] (cyclo([AEA][Tle][Hyp][dBip][dV][dDap](JQ1acid))) , output reported DC50. < 50 nM

Data credit: patent US12187816B2
